All figures here come from ChEMBL document CHEMBL3988442.

Task for the reader: assign each of the following compounds its reported Percent Effect.
- System: Wolbachia pipientis
- Procedure Text: Anti-Wolbachia Cell-Based Screen
- Assay type: functional
- Set-up: scale not given: in the data most compounds retested in dose-response had high values
- Condition Set: 5 µM
The whole screen tested about 48,000 compounds, of which about 13,000 (27%) showed an effect of 50% or more. The list shows a part of the results.
Numbers only, in %.

Kindly give each listed record's Percent Effect.
1. CCCNC(=O)c1cc(OC)c(OC)cc1N(C)S(C)(=O)=O
2. CCCc1cc(C(=O)N[C@H](C)[C@@H](O)c2ccc(O)cc2)n(C)n1

Marked response:
-23.04
110

Kindly give each listed record's Percent Effect.
1. O=C(NCN1CCc2ccccc2C1)c1cnccn1
2. CCSCCNc1nc2c(s1)c(C)nn2C
3. O=C(Nc1cnn(CCN2CCOCC2)c1)c1ccccn1

Marked response:
1. -0.1611
2. 7.108
3. -4.684

Kindly give each listed record's Percent Effect.
1. CCc1cccc(C)c1NC(=O)c1ccccc1N(C)S(C)(=O)=O
2. CC(=O)Nc1nc(C(=O)Nc2ccc(N3CCCCC3)nc2)cs1

Marked response:
[89.09, 7.498]

Kindly give each listed record's Percent Effect.
1. Cc1nn(C)c2nc(NC(C)c3nnn[nH]3)sc12 (stereo unspecified)
2. O=C(NCC1(O)COCCN(Cc2ccc(O)cc2)C1)c1cnccn1 (stereo unspecified)

Marked response:
1. 114.7
2. 136.8

Kindly give each listed record's Percent Effect.
1. CCNC(=O)c1cc(OC)c(OC)cc1N(C)S(C)(=O)=O
2. CCN(CCCc1ccccc1C)S(C)(=O)=O
3. O=C(NCC1(O)COCCN(Cc2cccc(O)c2)C1)c1ccccn1 (stereo unspecified)
4. Cc1nn(C)c2nc(NC(C)c3n[nH]c(=O)[nH]3)sc12 (stereo unspecified)
5. CNC(=O)c1cccc(NC(=O)NCc2ccccc2)c1C
6. Cc1ccc(-c2ccnc(NC(C)c3n[nH]c(=O)[nH]3)n2)c(C)n1 (stereo unspecified)
7. Cc1ccoc1C(=O)N1C[C@@H]2[C@@H](C1)OCC(=O)N2Cc1cccnc1.O=C(O)C(F)(F)F

Marked response:
1. -20.94
2. 5.478
3. 141
4. 96.4
5. 3.946
6. 6.558
7. 8.295
